assayed-target: UniProt P54904
Sequence (P54904 whole entry): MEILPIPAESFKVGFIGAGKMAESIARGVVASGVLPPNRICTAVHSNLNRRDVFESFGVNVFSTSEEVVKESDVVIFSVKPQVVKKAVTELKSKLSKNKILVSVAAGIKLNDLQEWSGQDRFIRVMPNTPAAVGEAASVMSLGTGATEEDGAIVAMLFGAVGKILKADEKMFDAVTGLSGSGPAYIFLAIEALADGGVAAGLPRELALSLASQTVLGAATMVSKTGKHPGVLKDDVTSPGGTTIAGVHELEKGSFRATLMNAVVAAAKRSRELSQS
observed-property: IC50 (mM)
Answer format: numeric, mM implied, no suffix.

Below are worked cases with known answers.
compound	value-unit	IC50
O=P(O)(O)C(Nc1ccc(Cl)cc1Cl)P(=O)(O)O	mM	0.5
O=P(O)(O)C(O)c1c(Cl)cccc1Cl (racemic)	mM	8.1
O=P(O)(O)C(Nc1cccc(Cl)c1Cl)P(=O)(O)O	mM	0.102

Can you share its IC50? I mean this compound: O=P(O)(O)C(O)c1ccc(Cl)c(Cl)c1 (racemic)
1.4

Can you share its IC50? I mean this compound: O=P(O)(O)C(O)c1ccc(Cl)cc1 (racemic)
45.5

====

assayed-target: Pyrroline-5-carboxylate reductase (Arabidopsis thaliana)
Sequence (P54904 whole entry): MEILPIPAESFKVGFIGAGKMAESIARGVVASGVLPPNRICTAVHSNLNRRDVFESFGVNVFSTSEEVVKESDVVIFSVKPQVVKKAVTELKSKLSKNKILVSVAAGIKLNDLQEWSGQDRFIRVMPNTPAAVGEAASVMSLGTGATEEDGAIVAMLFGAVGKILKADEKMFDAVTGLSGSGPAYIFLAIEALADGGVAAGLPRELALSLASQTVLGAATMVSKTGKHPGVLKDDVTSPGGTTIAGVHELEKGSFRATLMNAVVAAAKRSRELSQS
observed-property: pIC50
Quick note: pIC50 values are minus log10 of concentrations in mol/L.

compound	assayed-target	pIC50
COc1cccc(C(N)P(=O)(O)O)c1OC (racemic)	Pyrroline-5-carboxylate reductase (Arabidopsis thaliana)	1.80
O=P(O)(O)C(O)c1cccc(Cl)c1 (racemic)	Pyrroline-5-carboxylate reductase (Arabidopsis thaliana)	2.29
O=P(O)(O)C(O)c1ccccc1Cl (racemic)	Pyrroline-5-carboxylate reductase (Arabidopsis thaliana)	2.15

Now for the compound whose pIC50 we want.
Can you share its pIC50? I mean this compound: NC(c1cccc(Cl)c1)P(=O)(O)O (racemic)
1.45

====

Observed IC50 for Pyrroline-5-carboxylate reductase (Arabidopsis thaliana, UniProt P54904), reported per entry below.
Answer format: numeric, mM implied, no suffix.

molecule	observed-property	value-unit	value-observed
O=P(O)(O)C(Nc1c(Cl)cccc1Cl)P(=O)(O)O	IC50	mM	0.112

What value of IC50 on Pyrroline-5-carboxylate reductase (Arabidopsis thaliana, UniProt P54904) does NC(c1ccccc1F)P(=O)(O)O (racemic) have?
6.6

What value of IC50 on Pyrroline-5-carboxylate reductase (Arabidopsis thaliana, UniProt P54904) does NC(c1cccc(Cl)c1Cl)P(=O)(O)O (racemic) have?
4.6

What value of IC50 on Pyrroline-5-carboxylate reductase (Arabidopsis thaliana, UniProt P54904) does O=P(O)(O)C(Nc1ccc(Cl)cc1)P(=O)(O)O have?
0.86

What value of IC50 on Pyrroline-5-carboxylate reductase (Arabidopsis thaliana, UniProt P54904) does NC(c1ccc(Cl)cc1Cl)P(=O)(O)O (racemic) have?
8.2

What value of IC50 on Pyrroline-5-carboxylate reductase (Arabidopsis thaliana, UniProt P54904) does NC(c1ccccc1Br)P(=O)(O)O (racemic) have?
63

What value of IC50 on Pyrroline-5-carboxylate reductase (Arabidopsis thaliana, UniProt P54904) does O=P(O)(O)C(O)c1cccc(Cl)c1Cl (racemic) have?
4.9

What value of IC50 on Pyrroline-5-carboxylate reductase (Arabidopsis thaliana, UniProt P54904) does O=P(O)(O)C(Nc1ccc(Cl)c(Cl)c1)P(=O)(O)O have?
0.268

What value of IC50 on Pyrroline-5-carboxylate reductase (Arabidopsis thaliana, UniProt P54904) does O=P(O)(O)C(Nc1cc(Cl)cc(Cl)c1)P(=O)(O)O have?
0.077

What value of IC50 on Pyrroline-5-carboxylate reductase (Arabidopsis thaliana, UniProt P54904) does O=P(O)(O)C(O)c1ccc(Cl)cc1Cl (racemic) have?
5.8

What value of IC50 on Pyrroline-5-carboxylate reductase (Arabidopsis thaliana, UniProt P54904) does O=P(O)(O)C(Nc1cc(Cl)ccc1Cl)P(=O)(O)O have?
0.73

What value of IC50 on Pyrroline-5-carboxylate reductase (Arabidopsis thaliana, UniProt P54904) does NC(c1ccccc1Cl)P(=O)(O)O (racemic) have?
10.6
